Overview of recorded MIC for various molecules
# System: infectious agents (strains tested)
# Assay protocol: organism not typed
# Format: cell-based
# Experimental conditions: Exophiala dermatidis; read-out: MIC[90]
Write the answer as a number in µg/mL, unit excluded.

Give recorded MIC. C[C@@H](c1ncncc1F)[C@](O)(Cn1cncn1)c1ccc(F)cc1F 0.063

Give recorded MIC. C[C@@H]1[C@H](O)[C@@H](C)/C=C/C=C/C=C/C=C/C=C/C=C/C=C/[C@H](O[C@@H]2O[C@H](C)[C@@H](O)[C@H](N)[C@@H]2O)C[C@@H]2O[C@](O)(C[C@@H](O)C[C@@H](O)[C@H](O)CC[C@@H](O)C[C@@H](O)CC(=O)O[C@H]1C)C[C@H](O)[C@H]2C(=O)O 0.5

Give recorded MIC. CCC(C)n1ncn(-c2ccc(N3CCN(c4ccc(OCC5COC(Cn6cncn6)(c6ccc(Cl)cc6Cl)O5)cc4)CC3)cc2)c1=O (stereo not shown) 1

Give recorded MIC. CCC([C@@H](C)O)n1ncn(-c2ccc(N3CCN(c4ccc(OC[C@@H]5CO[C@@](Cn6cncn6)(c6ccc(F)cc6F)C5)cc4)CC3)cc2)c1=O (stereo partly shown) 0.125
